These data points were gathered from patent US20200292534A1.

I'd appreciate it if you could supply Kd values for the items below.
- testedTarget: T1, NLpoly11S
- T1 chain: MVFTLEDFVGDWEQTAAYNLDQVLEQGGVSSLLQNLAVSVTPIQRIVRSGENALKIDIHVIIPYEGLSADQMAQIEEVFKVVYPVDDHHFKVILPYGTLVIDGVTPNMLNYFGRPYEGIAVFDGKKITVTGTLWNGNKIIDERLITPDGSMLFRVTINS
- protocol: luminescence complementation titration, one-site specific binding
- conditions: chains peptide; modification not given
Numeric answer only, unit nM assumed.

Sample VTGYRLFEKES [NLpep101] — what was its Kd?
3120

Query: Kd; subject: VTGYRLFEKIL [NLpep128]
237

// lookup Kd for VTGYRLFEKIS [NLpep99]
266

Returns the measured Kd for the input binder. Input: VEGYRLFEKIS [NLpep104]
1740

Endpoint output: Kd of NVSGWRLFKKISN [NLpep78] . Value?
2.39

Looking for the measured Kd of NVTGYRLFKKISN [NLpep79] , can you help?
20.3
